Quick reference for koff among some binders
- Tested on: T1, human blood protein factor XII (FXII) (human, UniProt P00748 20-615)
- T1 construct: mature; Single-chain zymogen as it circulates in plasma; also called human FXII; plasma-derived FXII
- T1 sequence (looked up): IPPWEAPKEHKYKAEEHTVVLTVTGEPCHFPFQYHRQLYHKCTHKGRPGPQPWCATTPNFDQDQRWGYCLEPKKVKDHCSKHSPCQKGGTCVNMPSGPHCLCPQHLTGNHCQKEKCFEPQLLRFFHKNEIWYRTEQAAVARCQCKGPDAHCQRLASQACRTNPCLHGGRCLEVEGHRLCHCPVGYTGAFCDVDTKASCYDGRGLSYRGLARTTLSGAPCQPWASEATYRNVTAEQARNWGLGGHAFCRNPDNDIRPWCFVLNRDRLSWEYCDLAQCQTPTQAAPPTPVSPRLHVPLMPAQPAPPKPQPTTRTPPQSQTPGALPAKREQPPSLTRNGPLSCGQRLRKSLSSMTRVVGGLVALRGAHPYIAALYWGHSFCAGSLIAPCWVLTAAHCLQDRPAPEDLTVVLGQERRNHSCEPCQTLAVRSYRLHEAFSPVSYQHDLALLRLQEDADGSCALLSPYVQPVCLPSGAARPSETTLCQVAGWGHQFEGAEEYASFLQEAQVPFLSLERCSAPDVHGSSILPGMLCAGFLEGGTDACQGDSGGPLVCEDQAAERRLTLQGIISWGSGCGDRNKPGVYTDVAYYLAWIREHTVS
- Test summary: BLI (Octet RED96), antibody on anti-human Fc biosensors, antigen in solution, 1:1 fit
Reported endpoint: koff (s⁻¹)

>  <Binder>
humanized 5C12 antibody HC1 + LC1 (PP13893) (antibody, human IgG4 S228P, kappa, V domains shown, Human IgG4 (S241P hinge modified), expressed in HEK293; also called AB054; h5C12) VH: QVQLQESGPGLVKPSQTLSLTCTVSGYSITSGYSWHWIRQHPGKGLEWIGYIQYSGNTNSNPSLKSRVTISRDTSKNQFSLKLSSVTAADTAVYYCARWGSFDYWGQGTLVTVSS VL: EIVLTQSPATLSLSPGERATLSCRASSSVNYLHWYQQKPGQAPRRLIYDTSKLATGIPARFSGSGSGTDYTLTISSLEPEDFAVYYCQQWSGNPPTFGGGTKVEIKR

>  <Reported>
0.00016

$$$$
>  <Binder>
humanized 5C12 antibody HC2 + LC3 (PP13898) (antibody, human IgG4 S228P, kappa, V domains shown, Human IgG4 (S241P hinge modified), expressed in HEK293; also called H7881 + L7882) VH: DVQLQESGPGLVKPSQTLSLTCTVTGYSITSGYSWHWIRQHPGKGLEWMGYIQYSGNTNSNPSLKSRVTISRDTSKNQFSLKLSSVTAADTAVYYCARWGSFDYWGQGTLVTVSS VL: DIVLTQTPATLSLSPGERATLSCRASSSVNYLHWYQQKPGQAPKRLIYDTSKLATGIPARFSGSGSGTDYTLTISSLEPEDFAVYYCQQWSGNPPTFGQGTRLEIKR

>  <Reported>
0.00016

$$$$
>  <Binder>
humanized 5C12 antibody HC2 + LC1 (PP13896) (antibody, human IgG4 S228P, kappa, V domains shown, Human IgG4 (S241P hinge modified), expressed in HEK293; also called H7881 + L7880) VH: DVQLQESGPGLVKPSQTLSLTCTVTGYSITSGYSWHWIRQHPGKGLEWMGYIQYSGNTNSNPSLKSRVTISRDTSKNQFSLKLSSVTAADTAVYYCARWGSFDYWGQGTLVTVSS VL: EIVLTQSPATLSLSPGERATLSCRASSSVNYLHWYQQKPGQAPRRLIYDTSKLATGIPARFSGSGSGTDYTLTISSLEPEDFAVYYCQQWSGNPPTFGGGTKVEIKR

>  <Reported>
0.00022

$$$$
